# Tested on: Staphylococcus aureus V41
# measurement notes: MIC, standard agar-dilution assay (Table IX)
# Type: cell-based
# cond: Staphylococcus aureus V41, Penicillin-resistant strain, read-out: MIC
Below, each entry is listed with its recorded MIC.
property label: MIC (µg/mL)

[[record]]
compound = "CCC1OC(=O)CC(O)C(C)C(OC2OC(C)C(O)C(N(C)C)C2O)C(CCN2CCCC3CCCCC32)CC(C)C(=O)C=CC(C)=CC1COC1OC(C)C(O)C(OC)C1OC (stereo not shown)"
result_unit = "µg/mL"
quantitative_readout = 0.5

[[record]]
compound = "CCC1OC(=O)CC(O)C(C)C(OC2OC(C)C(O)C(N(C)C)C2O)C(CCN2CCCC(C)(C)C2)CC(C)C(=O)C=CC(C)=CC1COC1OC(C)C(O)C(OC)C1OC (stereo not shown)"
result_unit = "µg/mL"
quantitative_readout = 0.5

[[record]]
compound = "CCC1OC(=O)CC(O)C(C)C(OC2OC(C)C(O)C(N(C)C)C2O)C(CCN2C[C@H](C)C[C@H](C)C2)CC(C)C(=O)C=CC(C)=CC1COC1OC(C)C(O)C(OC)C1OC (stereo partly shown)"
result_unit = "µg/mL"
quantitative_readout = 1

[[record]]
compound = "CCC1OC(=O)CC(O)C(C)C(OC2OC(C)C(O)C(N(C)C)C2O)C(CCN2CCCc3ccccc32)CC(C)C(=O)C=CC(C)=CC1COC1OC(C)C(O)C(OC)C1OC (stereo not shown)"
result_unit = "µg/mL"
quantitative_readout = 0.5

[[record]]
compound = "CCC1OC(=O)CC(O)C(C)C(OC2OC(C)C(O)C(N(C)C)C2O)C(CCN2CCC3(CC2)OCCO3)CC(C)C(=O)C=CC(C)=CC1COC1OC(C)C(O)C(OC)C1OC (stereo not shown)"
result_unit = "µg/mL"
quantitative_readout = 2

[[record]]
compound = "CCC1OC(=O)CC(O)C(C)C(OC2OC(C)C(O)C(N(C)C)C2O)C(CCN2CCCC(C(=O)N(CC)CC)C2)CC(C)C(=O)C=CC(C)=CC1COC1OC(C)C(O)C(OC)C1OC (stereo not shown)"
result_unit = "µg/mL"
quantitative_readout = 2

[[record]]
compound = "CCC1OC(=O)CC(O)C(C)C(OC2OC(C)C(O)C(N(C)C)C2O)C(CCN2CCC(N3CCCCC3)CC2)CC(C)C(=O)C=CC(C)=CC1COC1OC(C)C(O)C(OC)C1OC (stereo not shown)"
result_unit = "µg/mL"
quantitative_readout = 1


---

# measurement notes: Titratable groups in 66% aqueous DMF (Tables XIV-XVI)
# Type: physicochemical
# cond: Titratable groups (first value)
# Source text: ^c Run in 66% aqueous DMF ^d Run in 66% aqueous DMF
property label: pKa

[[record]]
compound = "CCC1OC(=O)CC(O)C(C)C(OC2OC(C)C(O)C(N(C)C)C2O)C(CCN2CCC(O)CC2)CC(C)C(=O)C=CC(C)=CC1COC1OC(C)C(O)C(OC)C1OC (stereo not shown)"
property_label = "pKa"
quantitative_readout = 7.1

[[record]]
compound = "CCC1OC(=O)CC(O)C(C)C(OC2OC(C)C(O)C(N(C)C)C2O)C(CCN2CCCCCCCC2)CC(C)C(=O)C=CC(C)=CC1COC1OC(C)C(O)C(OC)C1OC (stereo not shown)"
property_label = "pKa"
quantitative_readout = 7.9

[[record]]
compound = "CCC1OC(=O)CC(O)C(C)C(OC2OC(C)C(O)C(N(C)C)C2O)C(CCN2CCCC(C(=O)N(CC)CC)C2)CC(C)C(=O)C=CC(C)=CC1COC1OC(C)C(O)C(OC)C1OC (stereo not shown)"
property_label = "pKa"
quantitative_readout = 7.4

[[record]]
compound = "CCC1OC(=O)CC(O)C(C)C(OC2OC(C)C(O)C(N(C)C)C2O)C(CCN2CCCCCCC2)CC(C)C(=O)C=CC(C)=CC1COC1OC(C)C(O)C(OC)C1OC (stereo not shown)"
property_label = "pKa"
quantitative_readout = 7.9

[[record]]
compound = "CCC1OC(=O)CC(O)C(C)C(OC2OC(C)C(O)C(N(C)C)C2O)C(CCN2CC3(C)CC2CC(C)(C)C3)CC(C)C(=O)C=CC(C)=CC1COC1OC(C)C(O)C(OC)C1OC (stereo not shown)"
property_label = "pKa"
quantitative_readout = 8

[[record]]
compound = "CCC1OC(=O)CC(O)C(C)C(OC2OC(C)C(O)C(N(C)C)C2O)C(CCN2CCCCCC2)CC(C)C(=O)C=CC(C)=CC1COC1OC(C)C(O)C(OC)C1OC (stereo not shown)"
property_label = "pKa"
quantitative_readout = 7.9

[[record]]
compound = "CCC1OC(=O)CC(O)C(C)C(OC2OC(C)C(O)C(N(C)C)C2O)C(CCN2CCCCC2)CC(C)C(=O)C=CC(C)=CC1COC1OC(C)C(O)C(OC)C1OC (stereo not shown) [Compound D2, 20-DH-DO-20-(piperidin-1-yl)desmycosin]"
property_label = "pKa"
quantitative_readout = 7.8

